All values here come from patent US12624067B2.

target: human integrin αvβ5 (Homo sapiens, UniProt P06756+P18084); test: Evaluation of integrin binding property (surface plasmon resonance, Biacore 3000, immobilized cyclic peptide); conditions: peptide immobilized on CM5 sensor chip; human integrin αvβ5 30-1,000 nM, 25° C., HEPES buffer with 5 mM magnesium chloride; read-out: Integrin binding property (dissociation constant)
Sequence (P06756 31-889 limits assumed): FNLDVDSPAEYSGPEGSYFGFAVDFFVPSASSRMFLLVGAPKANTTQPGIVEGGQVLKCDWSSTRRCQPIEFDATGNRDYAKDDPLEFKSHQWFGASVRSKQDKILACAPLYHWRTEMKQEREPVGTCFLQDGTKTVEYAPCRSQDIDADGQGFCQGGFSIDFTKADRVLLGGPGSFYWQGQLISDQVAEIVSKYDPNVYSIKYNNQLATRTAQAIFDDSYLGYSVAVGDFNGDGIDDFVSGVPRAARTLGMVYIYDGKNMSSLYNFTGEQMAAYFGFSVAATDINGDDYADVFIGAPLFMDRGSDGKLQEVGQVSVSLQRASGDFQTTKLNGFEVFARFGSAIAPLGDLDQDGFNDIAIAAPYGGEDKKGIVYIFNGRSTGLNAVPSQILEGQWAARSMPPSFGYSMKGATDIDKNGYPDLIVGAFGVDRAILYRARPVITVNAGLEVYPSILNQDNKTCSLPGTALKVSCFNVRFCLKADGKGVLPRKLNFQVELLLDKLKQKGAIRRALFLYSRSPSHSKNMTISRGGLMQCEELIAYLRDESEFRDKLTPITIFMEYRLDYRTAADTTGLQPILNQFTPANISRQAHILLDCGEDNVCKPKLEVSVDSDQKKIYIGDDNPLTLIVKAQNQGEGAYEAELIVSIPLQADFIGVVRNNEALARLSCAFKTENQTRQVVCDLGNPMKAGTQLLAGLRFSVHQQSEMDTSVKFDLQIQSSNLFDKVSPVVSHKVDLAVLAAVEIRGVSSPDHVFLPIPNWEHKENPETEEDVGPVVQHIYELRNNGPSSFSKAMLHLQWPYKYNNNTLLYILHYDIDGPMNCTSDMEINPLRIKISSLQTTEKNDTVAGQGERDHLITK
Sequence (P06756 891-1048 partner limits assumed): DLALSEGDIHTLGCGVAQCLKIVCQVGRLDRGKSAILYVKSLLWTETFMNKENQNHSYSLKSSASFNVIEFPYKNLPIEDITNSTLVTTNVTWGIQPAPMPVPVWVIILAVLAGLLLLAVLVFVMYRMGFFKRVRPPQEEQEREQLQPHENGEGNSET
Sequence (P18084 24-799): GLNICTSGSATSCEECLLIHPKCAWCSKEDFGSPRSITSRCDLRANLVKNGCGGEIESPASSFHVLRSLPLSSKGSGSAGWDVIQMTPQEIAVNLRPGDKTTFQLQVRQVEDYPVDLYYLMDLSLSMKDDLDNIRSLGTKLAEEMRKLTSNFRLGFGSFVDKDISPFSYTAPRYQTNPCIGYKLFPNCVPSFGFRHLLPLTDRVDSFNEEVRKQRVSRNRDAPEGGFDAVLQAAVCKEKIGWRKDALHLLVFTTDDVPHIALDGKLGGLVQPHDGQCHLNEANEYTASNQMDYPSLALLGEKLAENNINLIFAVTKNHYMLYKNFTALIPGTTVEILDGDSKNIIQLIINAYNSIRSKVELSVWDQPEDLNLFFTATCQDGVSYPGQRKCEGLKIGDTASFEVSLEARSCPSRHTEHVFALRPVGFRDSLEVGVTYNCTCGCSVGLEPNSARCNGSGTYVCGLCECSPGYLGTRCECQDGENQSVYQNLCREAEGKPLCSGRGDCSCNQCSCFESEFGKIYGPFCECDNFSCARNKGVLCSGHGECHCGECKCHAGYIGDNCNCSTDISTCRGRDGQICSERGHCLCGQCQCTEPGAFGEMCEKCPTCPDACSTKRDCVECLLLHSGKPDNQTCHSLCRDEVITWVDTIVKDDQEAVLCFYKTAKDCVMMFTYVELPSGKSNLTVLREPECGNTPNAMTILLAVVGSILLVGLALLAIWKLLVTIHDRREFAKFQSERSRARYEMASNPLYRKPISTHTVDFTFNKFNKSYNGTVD
pKd: −log10 of the molar value. Numbered stars: 1 amine (or outer) side, 2 acyl side, 3 side chain; on linkers, the order of the positions; unused ones are H or OH. Bridge positions count the residues as written; N and C are the ends. Square brackets hold non-standard residues; d marks the D form. Peptide text beside a SMILES is read from it. hCys = N[C@@H](CCS)C(=O)O; Orn = NCCC[C@H](N)C(=O)O; X1 = O=C(C[*:1])[*:2]; X2 = O=C(C[*:2])[*:1]
Hi there, I'd appreciate the recorded pKd for every entry that follows.

Lab book: pKd of N=C(N)NCCC[C@@H]1NC(=O)[C@@H]2CCSCC(=O)NCCCC[C@H](NC(=O)[C@H](CC(=O)O)NC(=O)CNC1=O)C(=O)N[C@@H](Cc1ccccc1)C(=O)N[C@H](C(=O)N[C@@H](CCCCN)C(=O)N[C@@H](CCCCN)C(=O)N[C@@H](CCCCN)C(=O)O)CCSCC(=O)N[C@@H](CC(=O)O)C(=O)N2 [Cyclic peptide 29] ({CH2CO}-D[hCys]RGDKF[hCys]KKK-OH; linker 2-6 via X1; thioether N-8) noted as > 7.30

Lab book: pKd of CC[C@H](C)[C@@H]1NC(=O)CSCC[C@@H](C(=O)N[C@@H](CCCCN)C(=O)N[C@@H](CCCCN)C(=O)N[C@@H](CCCCN)C(=O)O)NC(=O)[C@H](Cc2ccccc2)NC(=O)[C@@H]2CCCCNC(=O)CSCC[C@H](NC1=O)C(=O)N[C@@H](CCCNC(=N)N)C(=O)NCC(=O)N[C@@H](CC(=O)O)C(=O)N2 [Cyclic peptide 11] ({CH2CO}-I[hCys]RGDKF[hCys]KKK-OH; linker 2-6 via X1; thioether N-8) noted as > 7.30

Lab book: pKd of N=C(N)NCCC[C@@H]1NC(=O)[C@@H]2CCCNC(=O)CSCC[C@H](NC(=O)[C@H](CC(=O)O)NC(=O)CNC1=O)C(=O)N[C@@H](Cc1ccccc1)C(=O)N[C@H](C(=O)N[C@@H](CCCCN)C(=O)N[C@@H](CCCCN)C(=O)N[C@@H](CCCCN)C(=O)O)CCSCC(=O)N[C@@H](CCC(=O)O)C(=O)N2 [Cyclic peptide 40] ({CH2CO}-E[Orn]RGD[hCys]F[hCys]KKK-OH; linker 2-6 via X2; thioether N-8) noted as > 7.30

Lab book: pKd of CC(C)[C@@H]1NC(=O)CSCC[C@@H](C(=O)N[C@@H](CCCCN)C(=O)N[C@@H](CCCCN)C(=O)N[C@@H](CCCCN)C(=O)O)NC(=O)[C@H](Cc2ccccc2)NC(=O)[C@@H]2CCCNC(=O)CSCC[C@H](NC1=O)C(=O)N[C@@H](CCCNC(=N)N)C(=O)NCC(=O)N[C@@H](CC(=O)O)C(=O)N2 [Cyclic peptide 41] ({CH2CO}-V[hCys]RGD[Orn]F[hCys]KKK-OH; linker 2-6 via X1; thioether N-8) noted as 7.00 to 7.30

Lab book: pKd of CC[C@H](C)[C@@H]1NC(=O)CSCC[C@@H](C(=O)N[C@@H](CCCCN)C(=O)N[C@@H](CCCCN)C(=O)N[C@@H](CCCCN)C(=O)O)NC(=O)[C@H](Cc2ccccc2)NC(=O)[C@@H]2CCCNC(=O)CSCC[C@H](NC1=O)C(=O)N[C@@H](CCCNC(=N)N)C(=O)NCC(=O)N[C@@H](CC(=O)O)C(=O)N2 [Cyclic peptide 9] ({CH2CO}-I[hCys]RGD[Orn]F[hCys]KKK-OH; linker 2-6 via X1; thioether N-8) noted as 7.00 to 7.30
